Origin of values: PubChem BioAssay (NCI)

Test system: UACC-257 melanoma
Assay: NCI tumour cell line growth inhibition, 48 h
Decide using TGI: a value greater than or equal to 40 µM is criterion met, a smaller one is criterion not met.

Here are 5 compounds together with their reported answers.
Query :: # bool: TGI of C[CH2][Sn]([CH2]C)([O]C(=O)c1cc(OC)c(OC)c(OC)c1)[O][Sn]([CH2]C)([CH2]C)[O]C(=O)c1cc(OC)c(OC)c(OC)c1 >= 40 µM
Result :: criterion met

Query :: Input Cc1[nH]c2ncn(N)c(=N)c2c1Cc1ccccc1
Result :: criterion met

Query :: Input COc1cc2c(cc1OCCCN1CCN(CCCOc3cc4c(cc3OC)C(=O)C3CCC[C@H]3C=N4)CC1)N=C[C@@H]1CCCC1C2=O (stereo partly specified)
Result :: criterion met

Query :: Input NC(N)=NCCCS(=O)(=O)Nc1ccc(Nc2c3ccccc3nc3cc([N+](=O)[O-])ccc23)cc1
Result :: criterion met

Query :: Input CCOc1ccc(NC(=O)/C(=C/c2ccccc2)C(C)=O)cc1
Result :: criterion not met

More entries:
Query :: # bool: TGI of CN(C)c1ccc(N=C(C#N)c2nc(N)nc(N3CCOCC3)n2)cc1 >= 40 µM
Result :: criterion met

Query :: Input CCN1C(=O)N(CC)C2C1NN=c1s/c(=C\c3ccc([N+](=O)[O-])cc3)c(=O)n12 (stereo unspecified)
Result :: criterion met

Query :: Input COC(=O)CC(CC(=O)C(=O)OC)C(=O)OC (stereo unspecified)
Result :: criterion met

Query :: Input CCOC(=O)/C(C#N)=N\Nc1ccc(-n2c(C)nc3ccc(Br)cc3c2=O)cc1
Result :: criterion met

Query :: Input COc1ccc(C2=NN(c3ccc(S(N)(=O)=O)cc3)C(c3ccc(Cl)cc3)C2)c(O)c1 (stereo unspecified)
Result :: criterion met

Query :: Input CC(C)=CCc1c(O)c(CC=C(C)C)c2oc3c(c(=O)c2c1O)C(C=C(C)C)Oc1cc(O)ccc1-3 (stereo unspecified)
Result :: criterion not met
